Data origin: PubChem BioAssay (NCI)

This listing pairs molecules with measured TGI.
tested on: K-562 leukemia; experiment: NCI tumour cell line growth inhibition, 48 h
property: TGI

molecule="CCOC(=O)CCC(NC(=O)OCc1ccccc1)C(=O)NC(CCC(=O)OCC)C(=O)NNC(=O)OC(C)(C)C (stereo not given)" value="> 100 µM"
molecule=COc1ccc2c(Cl)cc(NC(=O)Nc3c(C)cccc3C)nc2c1 value="> 100 µM"
molecule=O=C(O)CNn1c(SCC(=O)O)nnc(/C=C/c2c(O)ccc3ccccc23)c1=O value="62.7 µM"
molecule="CCCCN[C@H]1C2C3CC4C5CC(C42)C1(C)C53 (stereo not given in full)" value="> 100 µM"
molecule="Cc1nc2ccc(NC3OC(CO)C(O)C(O)C3O)cc2c(=O)n1-c1ccccc1 (stereo not given)" value="> 100 µM"
